- System: stable HCV 1a RLuc replicon cells (genotype 1a H77 replicon)
- measurement.notes: microbe, parasite or virus in culture
- Type: cell-based
- condition: Hepatitis C virus, read-out: 1a (nM)
measure.name: EC50 (nM)
Express your answer in nM, writing the number without its unit.

Could you share which EC50 value was measured for "COC(=O)N[C@H](C(=O)N1CCC[C@H]1c1nc2c(ccc3cc4c(cc32)OCc2cc(-c3cnc([C@@H]5CCCN5C(=O)[C@H](NC(=O)OC)c5ccccc5)[nH]3)ccc2-4)[nH]1)C(C)C" ?
0.035

Entry "COC(=O)N[C@H](C(=O)N1CCC[C@H]1c1ncc(-c2ccc3c(c2)COc2cc4c(ccc5nc([C@@H]6CCCN6C(=O)[C@H](NC(=O)OC)c6ccccc6)[nH]c54)cc2-3)[nH]1)[C@@H](C)OC" please
0.012

Then "COC[C@H]1C[C@@H](c2nc3ccc4cc5c(cc4c3[nH]2)OCc2cc(-c3cnc([C@@H]4CCCN4C(=O)[C@@H](NC(=O)OC)[C@@H](C)OC)[nH]3)ccc2-5)N(C(=O)[C@H](NC(=O)OC)c2ccccc2)C1" ?
0.011

Okay, and COC(=O)N[C@H](C(=O)N1CCCC1c1ncc(-c2ccc3c(c2)COc2cc4c(ccc5nc([C@@H]6C[C@@H]7CCC[C@@H]7N6C(=O)[C@@H](NC(=O)OC)C(C)C)[nH]c54)cc2-3)[nH]1)C(C)C (stereo partly shown) ?
0.013
